These data points were gathered from patent US12162858B2.

- target_under_test: UniProt P07333
- Sequence (P07333 20-972): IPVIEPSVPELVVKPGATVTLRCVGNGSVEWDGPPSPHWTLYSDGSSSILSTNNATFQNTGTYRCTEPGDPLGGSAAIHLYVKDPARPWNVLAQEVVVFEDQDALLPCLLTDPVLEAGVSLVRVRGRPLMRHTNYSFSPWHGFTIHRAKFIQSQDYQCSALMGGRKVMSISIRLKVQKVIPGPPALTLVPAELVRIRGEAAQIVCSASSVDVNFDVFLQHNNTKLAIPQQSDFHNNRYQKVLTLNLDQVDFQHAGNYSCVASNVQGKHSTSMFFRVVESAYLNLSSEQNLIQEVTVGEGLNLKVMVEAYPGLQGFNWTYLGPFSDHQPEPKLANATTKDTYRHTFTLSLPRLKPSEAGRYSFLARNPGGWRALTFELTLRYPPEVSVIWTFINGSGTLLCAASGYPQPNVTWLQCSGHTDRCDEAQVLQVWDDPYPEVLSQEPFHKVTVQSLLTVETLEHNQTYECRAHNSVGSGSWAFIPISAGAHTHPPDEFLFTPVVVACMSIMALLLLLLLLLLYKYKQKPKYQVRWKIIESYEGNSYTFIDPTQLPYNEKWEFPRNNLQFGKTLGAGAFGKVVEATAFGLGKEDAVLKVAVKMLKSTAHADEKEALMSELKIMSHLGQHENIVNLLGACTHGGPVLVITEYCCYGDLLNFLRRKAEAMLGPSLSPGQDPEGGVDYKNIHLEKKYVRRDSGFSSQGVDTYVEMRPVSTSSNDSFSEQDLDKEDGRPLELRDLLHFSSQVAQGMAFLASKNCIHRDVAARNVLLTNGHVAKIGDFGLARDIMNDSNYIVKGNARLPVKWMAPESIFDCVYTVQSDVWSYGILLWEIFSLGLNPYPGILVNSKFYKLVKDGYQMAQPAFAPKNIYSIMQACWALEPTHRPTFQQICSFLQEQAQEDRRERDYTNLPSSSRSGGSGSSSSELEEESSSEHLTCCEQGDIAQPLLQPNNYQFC
- method_notes: Cellular CSF1R inhibition ELISA (p-CSF1R, M-CSF-induced) using THP-1 cells
observable: IC50

compound="CCCCn1cc(OCC(F)(F)F)c(C(=O)Nc2ccc(Oc3ccnc4cc(OC)c(OC)cc34)cn2)n1 [Compound 36]" observable=IC50 result="< 500 nM"
compound="COc1cc2nccc(Oc3ccc(NC(=O)c4nn(C)cc4OCC(F)(F)F)c(F)c3)c2cc1OC [Compound 45]" observable=IC50 result="< 500 nM"
compound="COc1cc2nccc(Oc3ccc(NC(=O)c4nn(C5CCN(C)C5)cc4OCC(F)(F)F)cn3)c2cc1OC (stereo not shown) [Compound 133]" observable=IC50 result="≥ 1000 nM"
compound="COc1cc2nccc(Oc3ccc(NC(=O)c4nn(CCOC5CC5)cc4OCC(F)(F)F)cc3)c2cc1OC [Compound 118]" observable=IC50 result="500 to 1000 nM"
compound="COc1cc2nccc(Oc3ccc(NC(=O)c4nn(C5CCN(C)C5)cc4OCC(F)(F)F)nc3)c2cc1OC (stereo not shown) [Compound 91]" observable=IC50 result="< 500 nM"

Which IC50 value belongs to COCCOc1cn(C2CC2)nc1C(=O)Nc1ccc(Oc2ccnc3cc(OC)c(OC)cc23)cn1 [Compound 107] ?
< 500 nM

Repeat with COc1cc2nccc(Oc3ccc(NC(=O)c4nn(CC5CCN(C)C5)cc4OCC(F)(F)F)nc3)c2cc1OC (stereo not shown) [Compound 169]
< 500 nM
